Source: PubChem BioAssay (EPA / NIEHS)

Experiment: ACEA_AR_agonist_AUC_viability: ACEA Biosciences xCELLigence Real-Time Cell Analysis on Androgen Receptor Agonism for Viability (AID 2283775)
Records with an inconclusive call do not appear. Active and inactive are the calls of the source. How the source made its calls: active means hit-call score of the fitted dose curve at least 0.9, where 1 is the maximum; inconclusive means response in the unintended direction; inactive means score below 0.9.
The reply should be one of these categories: active, inactive

Some solved entries appear below for comparison.
> print(dat)
                                    molecule  assignedlabel
 1                       CC(C)=CCC/C(C)=C/CO         active
 2   CNCc1ccc(NC(=O)c2c[nH]c3c2C(=O)CCC3)cc1         active
 3                                  NC(=O)NO       inactive
 4  O=C(NS(=O)(=O)/C=C/c1ccccc1)c1ccc(F)cc1Cl         active
 5                               CCNc1ccccc1       inactive
 6                            CC(=O)OCCC(C)C       inactive
 7                                    CCOCCO       inactive
 8  COCCOc1cc2cc(C(=O)NC3CCN(C(C)C)CC3)n(CC(=O)Nc3ccc(Cl)cn3)c2cn1         active
 9  CCOC(=O)COc1ccc2c(c1)CC(NCC(O)c1cccc(Cl)c1)CC2 (stereo not drawn)         active
10  COc1cccc(-c2ccc(/C=C\CN3CCCCCC3)cc2Cl)c1         active

[ask] Please share the test call associated with "Cc1c(-c2cccnc2)c2ccccc2n1CCCCC(=O)O" .
[reply] active

[ask] Please share the test call associated with "C1=CCCC=CCCC=CCC1" .
[reply] inactive

[ask] Please share the test call associated with "CC[C@H](C)C(=O)O[C@H]1C[C@@H](C)C=C2C=C[C@H](C)[C@H](CC[C@@H]3C[C@@H](O)CC(=O)O3)[C@H]21" .
[reply] inactive
